test system: L-PK gene; assay: L-PK promoter luciferase reporter in ChREBP-transfected primary hepatocytes with kinase/phosphatase inhibitors or db-cAMP; conditions: 5.5 and 27.5 mM glucose, 12 h; 10 μM H-89, 500 nM cantharidic acid, 5 μM KN-62, 30 μM PD98059, 50 μM Genistein
Description: […]
MEASURED_ENDPOINT: transcriptional activity of the L-PK gene in ChREBP-overexpressed hepatocytes

{"COMPOUND": "O=c1c(-c2ccc(O)cc2)coc2cc(O)cc(O)c12 [Genistein]", "OBSERVED": "did not affect"}
{"COMPOUND": "COc1cccc(-c2cc(=O)c3ccccc3o2)c1N [PD98059]", "OBSERVED": "did not affect"}
{"COMPOUND": "CN([C@@H](Cc1ccc(OS(=O)(=O)c2cccc3cnccc23)cc1)C(=O)N1CCN(c2ccccc2)CC1)S(=O)(=O)c1cccc2cnccc12 [KN-62]", "OBSERVED": "did not affect"}

All values here come from patent US20030124590A1.
